Target: human GPR139 receptor (Homo sapiens)
Construct: expressed in transfected cells; host or cells: T-REx-CHO (Thermo Fisher Scientific), doxycycline-induced
Sequence (Q6DWJ6 1-353): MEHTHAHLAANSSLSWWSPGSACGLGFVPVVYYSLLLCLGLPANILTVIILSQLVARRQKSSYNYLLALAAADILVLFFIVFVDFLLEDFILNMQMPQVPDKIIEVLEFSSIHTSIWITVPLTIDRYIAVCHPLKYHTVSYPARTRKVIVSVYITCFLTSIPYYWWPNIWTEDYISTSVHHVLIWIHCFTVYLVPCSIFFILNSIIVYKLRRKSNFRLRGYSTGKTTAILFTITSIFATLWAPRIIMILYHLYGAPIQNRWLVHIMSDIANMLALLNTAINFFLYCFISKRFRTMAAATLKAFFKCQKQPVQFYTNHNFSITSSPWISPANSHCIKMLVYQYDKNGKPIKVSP
Experiment: Measurement of GPR139 Activation Via Calcium Signaling (FLIPR, T-REx-CHO cells)
Type: cell-based
Conditions: T-REx-CHO cells stably expressing human GPR139, 11-point dose response, 10 μM maximum concentration, read-out: GPR139 Potency (pEC50) (converted)
Quick reference: log10 of EC50 of the listed items.
Values reflect log10 of reported EC50 (nM).

COc1ccc([C@H](C)NC(=O)Cn2ncc3ccn(C)c3c2=O)cc1 : 1.19
Cc1nn(C(C)C)c2cnn(CC(=O)N[C@@H](C)c3ccc(C(F)(F)F)cc3)c(=O)c12 : 2.03
Cc1ccc([C@H](C)NC(=O)Cn2ncc3c(c(C4CC4)nn3C)c2=O)c(F)c1 : 1.78
Cc1ccc([C@H](C)NC(=O)Cn2ncc3c(C4CC4)nn(C)c3c2=O)cc1 : 1.42
Cc1ccc([C@H](C)NC(=O)Cn2ncc3c(c(C)nn3C)c2=O)cc1 : 1.59
C[C@H](NC(=O)Cn1ncc2c(ncn2C)c1=O)c1ccc(C(F)(F)F)cc1 : 2.66
COc1ccc([C@H](C)NC(=O)Cn2nc(C)c3c(c(C)nn3C(C)C)c2=O)cc1 : 2.12
Cc1nn(C23CC(C2)C3)c2cnn(CC(=O)N[C@@H](C)c3ccc(C(F)(F)F)cc3)c(=O)c12 : 2.03
Cc1cc([C@H](C)NC(=O)Cn2ncc3c(c(C)nn3C3CC3)c2=O)ccc1F : 1.38
Cc1ccc([C@H](C)NC(=O)Cn2nc(C)c3c(c(C4CC4)nn3C)c2=O)cc1 : 1.53

Query :: Identify log10 of EC50 associated with the molecule `Cc1nn(C)c2c(=O)n(CC(=O)N[C@@H](C)c3ccc(C(F)(F)F)cn3)ncc12`
Result :: 2.33

Query :: Give the value of log10 of EC50 reported for the following: `Cc1nn(CC(=O)N[C@@H](C)c2ccc(C(F)(F)F)cc2)c(=O)c2cnn(C(C)C)c12`
Result :: 2.79

Query :: Assign log10 of EC50 to the following record: `Cc1ccc([C@H](C)NC(=O)Cn2ncc3c(C4CC4)cn(C)c3c2=O)cc1`
Result :: 1.76

Query :: Entry `Cc1ccc([C@H](C)NC(=O)Cn2nc(C)c3c(cnn3C3CC3)c2=O)cc1` needs its log10 of EC50 filled in; supply it.
Result :: 2.40

Query :: Given the molecule `Cc1ccc([C@H](C)NC(=O)Cn2nc(C)c3c(cnn3C(C)C)c2=O)c(F)c1` , write its reported log10 of EC50.
Result :: 1.97

Hey, just so you know, these numbers are from patent US12370192B2.
